test-target: FAAH (Rattus norvegicus)
Sequence (P97612 1-579): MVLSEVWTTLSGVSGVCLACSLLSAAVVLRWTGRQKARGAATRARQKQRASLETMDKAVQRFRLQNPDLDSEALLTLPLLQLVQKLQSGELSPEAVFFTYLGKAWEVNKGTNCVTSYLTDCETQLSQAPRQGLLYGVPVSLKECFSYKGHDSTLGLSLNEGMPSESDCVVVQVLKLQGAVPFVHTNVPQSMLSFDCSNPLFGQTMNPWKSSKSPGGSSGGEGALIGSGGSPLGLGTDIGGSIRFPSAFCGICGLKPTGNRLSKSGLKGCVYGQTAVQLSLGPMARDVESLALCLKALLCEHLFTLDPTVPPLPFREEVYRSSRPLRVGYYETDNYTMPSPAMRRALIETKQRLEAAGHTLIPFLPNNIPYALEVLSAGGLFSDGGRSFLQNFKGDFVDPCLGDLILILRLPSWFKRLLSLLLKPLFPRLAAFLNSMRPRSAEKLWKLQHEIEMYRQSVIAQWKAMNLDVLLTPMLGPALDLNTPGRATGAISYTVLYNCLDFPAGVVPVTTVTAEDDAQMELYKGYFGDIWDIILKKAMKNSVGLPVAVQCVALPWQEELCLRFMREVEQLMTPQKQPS
observable: Ki (nM)

> print(dat)
                                   compound               test.target  readout.number
1  CC(C(=O)Nc1ncccc1Br)c1ccc(-c2ccccc2)c(F)c1 (stereo not shown)  FAAH (Rattus norvegicus)              13

###

test-target: FAAH (Mus musculus, UniProt O08914)
Sequence (O08914 whole entry): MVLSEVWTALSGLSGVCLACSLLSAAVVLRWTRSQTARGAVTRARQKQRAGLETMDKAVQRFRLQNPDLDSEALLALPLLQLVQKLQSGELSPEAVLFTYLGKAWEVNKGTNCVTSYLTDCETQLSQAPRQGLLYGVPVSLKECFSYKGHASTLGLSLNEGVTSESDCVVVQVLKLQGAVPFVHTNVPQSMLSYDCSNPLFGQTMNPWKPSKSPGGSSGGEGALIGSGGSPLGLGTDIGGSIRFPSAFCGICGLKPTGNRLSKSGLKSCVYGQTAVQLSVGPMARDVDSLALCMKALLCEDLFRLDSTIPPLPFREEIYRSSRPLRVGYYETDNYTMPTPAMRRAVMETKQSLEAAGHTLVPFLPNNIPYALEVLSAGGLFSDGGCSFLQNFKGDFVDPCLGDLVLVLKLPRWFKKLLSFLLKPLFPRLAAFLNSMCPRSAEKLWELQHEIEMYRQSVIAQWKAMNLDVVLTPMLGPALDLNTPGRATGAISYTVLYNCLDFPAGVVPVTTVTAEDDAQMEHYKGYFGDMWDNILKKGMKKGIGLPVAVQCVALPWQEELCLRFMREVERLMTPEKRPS
observable: IC50 (nM)

> print(dat)
                                   molecule                          test.target  observable  unit.info  readout.number
1  CC(C(=O)Nc1ncccc1Br)c1ccc(-c2ccccc2)c(F)c1 (stereo not shown) [Flu-AM4]  FAAH (Mus musculus, UniProt O08914)        IC50         nM             430

###

test-target: FAAH (Rattus norvegicus, UniProt P97612)
Construct: rat or mouse brain homogenates as the enzyme source; from tissue; host or cells: rat brain (minus cerebellum), Wistar or Sprague-Dawley, washed membrane homogenate
Sequence (P97612 1-579): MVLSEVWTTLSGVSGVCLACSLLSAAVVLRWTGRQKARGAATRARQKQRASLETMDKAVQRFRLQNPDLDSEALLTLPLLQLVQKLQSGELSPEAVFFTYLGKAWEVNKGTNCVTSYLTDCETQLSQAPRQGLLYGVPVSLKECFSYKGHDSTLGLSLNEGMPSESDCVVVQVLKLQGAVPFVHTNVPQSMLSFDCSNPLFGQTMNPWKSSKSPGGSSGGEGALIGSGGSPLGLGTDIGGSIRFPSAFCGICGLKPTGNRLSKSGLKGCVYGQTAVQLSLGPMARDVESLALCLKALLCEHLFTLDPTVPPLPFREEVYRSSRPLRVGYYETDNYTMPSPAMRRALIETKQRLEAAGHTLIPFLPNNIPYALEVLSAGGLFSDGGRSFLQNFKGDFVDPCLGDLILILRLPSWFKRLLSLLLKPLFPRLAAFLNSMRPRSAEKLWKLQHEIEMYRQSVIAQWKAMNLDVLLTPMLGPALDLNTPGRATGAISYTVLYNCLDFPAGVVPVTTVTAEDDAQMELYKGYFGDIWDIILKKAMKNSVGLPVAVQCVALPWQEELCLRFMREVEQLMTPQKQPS
procedure-details: FAAH assay: [3H]AEA hydrolysis by rat brain homogenates
Type: biochemical
test-parameters: 0.5 µM [3H]AEA, rat brain homogenates; derived from pI50; read-out: IC50 for inhibition of rat brain AEA hydrolysis
pIC50: −log10 of the molar value.
observable: pIC50

> print(dat)
                                   molecule  observable  readout.number
1  CC(C(=O)Nc1ncccc1C(F)(F)F)c1ccc(-c2ccccc2)c(F)c1 (stereo not drawn) [Flu-AM3]       pIC50            6.96
2  CC(C(=O)Nc1ncccc1Cl)c1ccc(-c2ccccc2)c(F)c1 (stereo not drawn) [Flu-AM6]       pIC50            7.72
3  CC(C(=O)Nc1ncccc1Br)c1ccc(-c2ccccc2)c(F)c1 (stereo not drawn) [Flu-AM4]       pIC50            7.68
